Molecular target: human dopamine D4 receptor subtype (Homo sapiens, UniProt P21917)
Construct: expressed in transfected cells
Sequence (P21917 1-419): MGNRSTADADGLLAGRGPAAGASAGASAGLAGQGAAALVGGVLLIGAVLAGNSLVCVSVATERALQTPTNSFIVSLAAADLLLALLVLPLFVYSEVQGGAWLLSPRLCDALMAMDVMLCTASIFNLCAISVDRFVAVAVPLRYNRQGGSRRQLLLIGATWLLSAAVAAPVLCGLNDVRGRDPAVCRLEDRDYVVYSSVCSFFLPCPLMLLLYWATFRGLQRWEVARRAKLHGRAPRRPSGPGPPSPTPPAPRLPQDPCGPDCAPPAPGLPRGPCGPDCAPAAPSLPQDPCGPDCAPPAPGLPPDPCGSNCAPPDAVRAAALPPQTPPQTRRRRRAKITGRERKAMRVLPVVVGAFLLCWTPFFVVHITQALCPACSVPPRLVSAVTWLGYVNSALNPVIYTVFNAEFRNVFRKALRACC
Experiment: D4 receptor binding assay ([3H]YM-09151-2 displacement)
Counter-ions that a name gives are not always drawn.
endpoint-label: Ki (nM)

[[record]]
molecule = "CN(Cc1ccccc1)Cc1nc2c([nH]1)-c1ccccc1CC2 [Compound 2, dihydrochloride]"
result = 81

